- Tested on: leukotriene D4 -induced bronchoconstriction
- Test details: Inhibition of bronchoconstriction in guinea pigs (leukotriene D4-induced, modified Konzett-Rossler method)
- Assay type: in vivo, Male Hartley guinea pig
- Conditions used: 50 mg/kg, p.o., 2 hours before leukotriene D4 challenge (3 μg/kg, i.v.)
# maps each entry to its Inhibition (%)
Write it as a number; the unit % goes unstated.

Compound	Unit name	Inhibition (%)
CCCc1c(OCCCCOc2ccc(C(C)=O)c(OCCCC(=O)O)c2CCC)ccc(C(C)=O)c1O [Example 8]	%	83.1
CCCc1c(OCCCCCOc2c(C(C)=O)ccc(OCC(=O)O)c2CCC)ccc(C(C)=O)c1O [Ref. 2, reference compound]	%	16.9
CCCc1c(OCCOc2ccc(C(C)=O)c(OCCCC(=O)O)c2CCC)ccc(C(C)=O)c1O [Example 6]	%	86.6

What the record says about CCCc1c(OCCCOc2ccc(C(C)=O)c(OCCCC(=O)O)c2CCC)ccc(C(C)=O)c1O [Example 5] : Inhibition (%) is 82.7

Value of measured Inhibition (%) for the entry CCCc1c(OCCCOc2ccc(C(C)=O)c(OCC(=O)O)c2CCC)ccc(C(C)=O)c1O [Ref. 1, reference compound] : 56.1

# Inhibition (%) (compound: CCCc1c(OCCCOc2ccc(C(C)=O)c(OCCCCC(=O)O)c2CCC)ccc(C(C)=O)c1O [Example 7] ) is 94.8
